- targetUnderTest: UniProt:P0DTD1
- testSummary: biochemical
- testContext: 100 µM; inhibitor
Where a name gives a salt, the structure may show the parent alone.
quantityMeasured: %inhibition

compound	dataValue
CN1[C@@H]2CC[C@H]1C[C@@H](OC(=O)c1c[nH]c3ccccc13)C2 [Tropisetron HCl]	30.45%
CCN(CC)Cc1cc(Nc2ccnc3cc(Cl)ccc23)ccc1O [Amodiaquine hydrochloride]	7.946%
C[C@@H](CN1CC(=O)NC(=O)C1)N1CC(=O)NC(=O)C1 [Dexrazoxane]	12.37%
CC1(C)[C@H](C(=O)O)N2C(=O)C[C@H]2S1(=O)=O	20.75%
C[C@H]1COc2c(N3CCN(C)CC3)c(F)cc3c(=O)c(C(=O)O)cn1c23 [Levofloxacin]	22.21%
CS(=O)(=O)CCNCc1ccc(-c2ccc3ncnc(Nc4ccc(OCc5cccc(F)c5)c(Cl)c4)c3c2)o1 [Lapatinib (GW-572016) Ditosylate]	16.67%
CC(=O)Oc1ccccc1C(=O)O [Aspirin]	26.28%
O=C1CN(/N=C/c2ccc(-c3ccc([N+](=O)[O-])cc3)o2)C(=O)N1 [Dantrolene sodium]	11.92%
N=C(N)NCCN1CCCCCCC1 [Guanethidine Sulfate]	0%
O=C(O)c1ccccc1 [Benzoic Acid]	1.824%
COc1cc2nccc(Oc3ccc(NC(=O)C4(C(=O)Nc5ccc(F)cc5)CC4)cc3)c2cc1OC [Cabozantinib (XL184, BMS-907351)]	25.14%
CC[C@H]1OC(=O)C[C@@H](O)[C@H](C)[C@@H](O[C@@H]2O[C@H](C)[C@@H](O)[C@H](N(C)C)[C@H]2O)[C@@H](CCN2C[C@H](C)C[C@H](C)C2)C[C@@H](C)C(=O)/C=C/C(C)=C/[C@@H]1CO[C@@H]1O[C@H](C)[C@@H](O)[C@@H](OC)[C@H]1OC [Tilmicosin]	23.11%
Cc1c(-c2ccc(O)cc2)n(Cc2ccc(OCCN3CCCCCC3)cc2)c2ccc(O)cc12 [Bazedoxifene Acetate]	3.518%
CN1[C@@H]2CCC[C@H]1C[C@@H](NC(=O)c1nn(C)c3ccccc13)C2 [Granisetron HCl]	0%
CC1(C)S[C@@H]2[C@H](NC(=O)[C@H](N)c3ccccc3)C(=O)N2[C@H]1C(=O)O [Ampicillin sodium]	0%
CN(C/C=C/C#CC(C)(C)C)Cc1cccc2ccccc12 [Terbinafine]	49.96%

----------
- targetUnderTest: SARS-CoV-2 Mac1 (Severe acute respiratory syndrome coronavirus 2)
- testSummary: biochemical
- testContext: 100 µM; inhibitor
Where a name gives a salt, the structure may show the parent alone.

compound	targetUnderTest	unitAbbrev	%inhibition
CC(C)(C)NCC(O)c1ccc(O)c(CO)c1 (stereo not drawn) [Salbutamol Sulfate]	SARS-CoV-2 Mac1 (Severe acute respiratory syndrome coronavirus 2)	%	6.444
COc1ccccc1OCC(O)CN1CCN(CC(=O)Nc2c(C)cccc2C)CC1 (stereo not drawn) [Ranolazine]	SARS-CoV-2 Mac1 (Severe acute respiratory syndrome coronavirus 2)	%	11.36
COc1ccc2c(c1)c(CC(=O)O)c(C)n2C(=O)c1ccc(Cl)cc1 [Indometacin Sodium]	SARS-CoV-2 Mac1 (Severe acute respiratory syndrome coronavirus 2)	%	0
Nc1c(Br)cc(Br)cc1CN[C@H]1CC[C@H](O)CC1 [Ambroxol]	SARS-CoV-2 Mac1 (Severe acute respiratory syndrome coronavirus 2)	%	0
CN(C)CC/C=C1/c2ccccc2Sc2ccc(Cl)cc21 [Chlorprothixene hydrochloride]	SARS-CoV-2 Mac1 (Severe acute respiratory syndrome coronavirus 2)	%	0
CCCC(CCC)C(=O)O [Valproic acid]	SARS-CoV-2 Mac1 (Severe acute respiratory syndrome coronavirus 2)	%	0
C[C@H]1C[C@H]2[C@@H]3CCC4=CC(=O)C=C[C@]4(C)[C@@]3(F)[C@@H](O)C[C@]2(C)[C@@]1(O)C(=O)CO [Betamethasone]	SARS-CoV-2 Mac1 (Severe acute respiratory syndrome coronavirus 2)	%	1.437
COc1cc(O)c(C(=O)Nc2nc(C(=O)NCCN(C(C)C)C(C)C)cs2)cc1OC [Acotiamide hydrochloride]	SARS-CoV-2 Mac1 (Severe acute respiratory syndrome coronavirus 2)	%	0
CC(=O)Oc1cc2c(s1)CCN(C(C(=O)C1CC1)c1ccccc1F)C2 (stereo not drawn) [Prasugrel]	SARS-CoV-2 Mac1 (Severe acute respiratory syndrome coronavirus 2)	%	25.16

# credit: paper doi:10.1101/2021.10.07.463234v2
